Values compiled from PubChem BioAssay (NCI).

- Tested on: KM12 colon
- Procedure details: NCI tumour cell line growth inhibition, 48 h; in the data active = GI50 below about 0.43 µM; inactive = the rest
Possible outcomes: active, inactive

C=C1C(=O)O[C@H]2[C@H]1CC/C(COC(=O)NCCCCNC(=O)OC/C1=C/CC[C@@]3(C)O[C@H]3[C@H]3OC(=O)C(=C)[C@@H]3CC1)=C\CC[C@@]1(C)O[C@@H]21 = inactive
COC(=O)Nc1nc2ccc(C3(c4ccc(F)cc4)OCCO3)cc2[nH]1 = active
O=C1c2cccnc2-c2nc(-c3ccc(Cl)cc3)cc3c2c1nc1ccccc13 = inactive
Cc1cc2ncnn2cc1Nc1ncc2c(n1)n(C1CCOCC1)c(=O)n2C = inactive
CCNCCNc1cc(-c2ccc(C(F)(F)F)cc2)c(C#N)c2nc3ccccc3n12 = inactive
O=c1cc(NCC(O)CN2CCCC2)n(Cc2ccccc2)c(=O)n1Cc1ccccc1 (stereo not given) = inactive
COc1ccc(-c2[nH]c3ccc(OC)cc3c2/C=C(\C#N)S(=O)(=O)c2ccccc2)cc1 = inactive
COc1ccc(C(=O)c2cc(OC)c(OC)c(OC)c2)cc1/C=C/C(=O)c1ccc(F)cc1 = inactive
CCOC(=O)C1CCN(S(=O)(=O)/N=C2/NC(=O)NC2=C(Cl)Cl)CC1 = active
C=CCCCCC/C=C\[C@@H](O)C#CC#C/C=C/CO = inactive
